# assayProtocol: Aqueous solubility of solvent A at 20° C.
# Type: physicochemical
# experimentalSetup: 20° C.
metric: Aqueous solubility
I'd appreciate it if you included the unit after the number.

Field: example entries. Status: answers known.
OCCOc1ccccc1 | 2.67 % by mass
OCCCCc1ccccc1 | 0.1 % by mass
OCCc1ccccc1 | 2.2 % by mass

Q) For the molecule CC(O)COc1ccccc1 (stereo not shown) , give its reported Aqueous solubility.
A) 1.1 % by mass

Q) For the molecule OCCCc1ccccc1 , give its reported Aqueous solubility.
A) 0.568 % by mass

Q) For the molecule CC(O)Cc1ccccc1 (stereo not shown) , give its reported Aqueous solubility.
A) 0.58 % by mass

Q) For the molecule OCc1ccccc1 , give its reported Aqueous solubility.
A) 4.29 % by mass
